Target: furin, P09958;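 also: purified furin at 1:10 enzyme:substrate in 50 mM HEPES pH 7.5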
Sequence (P09958 whole entry): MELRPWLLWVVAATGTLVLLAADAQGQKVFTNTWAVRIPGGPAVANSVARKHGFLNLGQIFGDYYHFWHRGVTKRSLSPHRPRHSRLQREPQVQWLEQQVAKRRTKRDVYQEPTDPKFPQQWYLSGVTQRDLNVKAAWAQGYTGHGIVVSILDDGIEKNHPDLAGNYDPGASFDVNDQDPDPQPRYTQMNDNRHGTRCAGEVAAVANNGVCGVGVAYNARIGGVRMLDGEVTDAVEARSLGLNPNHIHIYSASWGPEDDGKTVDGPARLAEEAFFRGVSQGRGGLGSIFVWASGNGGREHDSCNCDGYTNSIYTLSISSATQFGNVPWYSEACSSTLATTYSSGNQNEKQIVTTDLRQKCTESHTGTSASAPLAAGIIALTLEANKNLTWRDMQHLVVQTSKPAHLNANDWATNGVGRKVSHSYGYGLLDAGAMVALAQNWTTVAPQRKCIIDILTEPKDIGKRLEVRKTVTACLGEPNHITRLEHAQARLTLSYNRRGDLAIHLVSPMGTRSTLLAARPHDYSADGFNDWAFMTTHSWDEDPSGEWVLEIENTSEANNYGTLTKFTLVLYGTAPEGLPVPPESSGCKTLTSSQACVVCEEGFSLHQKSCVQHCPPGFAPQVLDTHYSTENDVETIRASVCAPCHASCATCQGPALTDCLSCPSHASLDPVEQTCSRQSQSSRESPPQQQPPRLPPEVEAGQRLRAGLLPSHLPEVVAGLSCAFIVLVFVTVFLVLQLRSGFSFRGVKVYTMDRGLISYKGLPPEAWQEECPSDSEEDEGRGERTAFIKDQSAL
Assay: furin cleavage Z-score vs untreated control; higher = more cleavage, active = 3.5 or more, inactive = 1 or less, 8 variable residues between constant flanks
Settings: 7.5 min
The other results are listed elsewhere or left out. The true hit rate is not given.

# primary-sequence, furin cleavage Z-score
measured = [
    ("CAMSTWSKRSAGNASASA [FS-464]", 0.45),
    ("CANTPCSGSWAGNASASA [HC1841]", -0.658),
    ("CAVEPVVFSQAGNASASA [HC646]", -0.426),
    ("CAVPYFVRVQAGNASASA [HC615]", -1.87),
    ("CANTCVTQTVAGNASASA [HC888]", -0.737),
    ("CAVPERCRRQAGNASASA [FS-1580]", 6.62),
    ("CASQFRSKRSAGNASASA [FS-1085]", 9.98),
]
